FYI, the data here is from patent US9656990B2.

SYSTEM_TESTED: human cathepsin K (UniProt P43236, Y175D/V274L, species not given)
ASSAY_DETAILS: Cathepsin K Assay
Type: biochemical
CONDITION_SUMMARY: IP from dose response curve; Z-Leu-Arg-AMC substrate, pH 5.5; read-out: hrbCat K (IP (nM))
RECORDED_METRIC: log10 IC50 (log10 of the value in nM)

• N#Cc1ccccc1-n1cc(-c2ccc(N3CCS(=O)(=O)CC3)cc2)c([C@@H]2CCCC[C@H]2C(=O)NC2(C#N)CC2)n1 = 0.01
• N#CC1(NC(=O)[C@@H]2CCCC[C@H]2c2nn(-c3cccc(OC(F)(F)F)c3)cc2-c2ccc(N3CCS(=O)(=O)CC3)cc2)CC1 = -0.11
• Cc1ccc(-n2cc(-c3ccc(N4CCS(=O)(=O)CC4)cc3)c([C@@H]3CCCC[C@H]3C(=O)NC3(C#N)CC3)n2)nn1 = 0.19
• CC1(C)CC[C@@H](c2nn(-c3ccc(F)cc3)cc2-c2ccc(N3CCS(=O)(=O)CC3)cc2)[C@H](C(=O)NC2(C#N)CC2)C1 (single isomer, unassigned) [Example 126] = 2.06
• N#CC1(NC(=O)[C@@H]2CC(F)(F)CC[C@H]2c2nn(-c3ccc(F)cc3)cc2-c2ccc(N3CCS(=O)(=O)CC3)cc2)CC1 = -0.33
• N#CC1(NC(=O)[C@@H]2CCCC[C@H]2c2nn(-c3ccc(-n4cccn4)cc3)cc2-c2ccc(N3CCS(=O)(=O)CC3)cc2)CC1 = -0.02
• CCN=S1(=O)CCN(c2ccc(-c3cn(-c4ccc(F)cc4)nc3[C@@H]3CCCC[C@H]3C(=O)NC3(C#N)CC3)cc2)CC1 = 0.21
• N#CC(CC(F)(F)F)NC(=O)[C@@H]1CC(F)(F)CC[C@H]1c1nn2ccccc2c1-c1ccc(N2CCS(=O)(=O)CC2)cc1 (single isomer, unassigned) [Example 75] = 0.00
• N#CC1(NC(=O)[C@@H]2CC(F)(F)CC[C@H]2c2nn(-c3ccc(F)cn3)c(C(F)F)c2-c2ccc(N3CCS(=O)(=O)CC3)cc2)CC1 = 0.37
• CS(=O)(=O)c1ccc(-c2cn(-c3ccc4ccccc4c3)nc2C2CCC(F)(F)CC2C(=O)NCC#N)cc1 (racemic) = 0.33
• Cc1ccc(-n2cc(-c3ccc(N4CCS(=O)(=O)CC4)cc3)c([C@@H]3CCCC[C@H]3C(=O)NC3(C#N)CC3)n2)c(C#N)c1 = 0.48
• CN=S1(=O)CCN(c2ccc(-c3cn(-c4ccc(F)cn4)nc3[C@@H]3CC(F)(F)CC[C@H]3C(=O)NC(C)C#N)cc2)CC1 (single isomer, unassigned) [Example 25] = -0.28
• N#CC1(NC(=O)[C@@H]2CCCC[C@H]2c2nn(-c3cccnc3)cc2-c2ccc(N3CCS(=O)(=O)CC3)cc2)CC1 = -0.32
• Cc1c(-c2ccc(N3CCS(=N)(=O)CC3)cc2)c([C@@H]2CCCC[C@H]2C(=O)N[C@H](C#N)C(C)C)nn1-c1ncccc1F = 1.35
• CN=S1(=O)CCN(c2ccc(-c3cn(-c4ccc(F)cn4)nc3[C@@H]3CC(F)(F)CC[C@H]3C(=O)NC(C)C#N)cc2)CC1 (single isomer, unassigned) [Example 24] = 2.23
• Cc1c(-c2ccc(N3CCS(=N)(=O)CC3)cc2)c([C@@H]2CCCC[C@H]2C(=O)N[C@@H](C)C#N)nn1-c1ncccc1F = 0.87
• C[C@@H](C#N)NC(=O)[C@@H]1C[C@@H](F)CC[C@H]1c1nn(-c2ncccc2F)cc1-c1ccc(N2CCS(=N)(=O)CC2)cc1 = 0.92
• N#CC1(NC(=O)[C@@H]2CCCC[C@H]2c2nn(-c3ccc(F)cn3)cc2-c2ccc(N3CCS(=O)(=O)CC3)cc2)CC1 = 0.09
• N#CC1(NC(=O)[C@@H]2CCCC[C@H]2c2nn(-c3cccc(Cl)c3)cc2-c2ccc(N3CCS(=O)(=O)CC3)cc2)CC1 = -0.32
• N#CC1(NC(=O)[C@@H]2CC3CC3C[C@H]2c2nn(-c3ccc(F)cc3)cc2-c2ccc(N3CCS(=O)(=O)CC3)cc2)CC1 (single isomer, unassigned) [Example 4] = -0.03
• N#Cc1cc(-n2cc(-c3ccc(N4CCS(=O)(=O)CC4)cc3)c([C@@H]3CCCC[C@H]3C(=O)NC3(C#N)CC3)n2)ccc1F = -0.08
• CS(=O)(=O)c1ccc(-c2cn(-c3ccc(F)cc3)nc2C2CCC(F)(F)CC2C(=O)NCC#N)cc1 (racemic) = 0.09
• N#CC1(NC(=O)[C@@H]2CCCC[C@H]2c2nn(-c3ccc(C(F)(F)F)cn3)cc2-c2ccc(N3CCS(=O)(=O)CC3)cc2)CC1 = 0.07
• CN=S1(=O)CCN(c2ccc(-c3cn(-c4ccc(F)cn4)nc3[C@@H]3CC[C@H](F)C[C@H]3C(=O)NC3(C#N)CC3)cc2)CC1 [Example 159] = 0.51
